experiment: Clearance in Sprague-Dawley rat at 2 mg/kg, iv; assay type: ADME, organism-based; set-up: dose 2 mg/kg, route intravenous; conditions: in vivo
ATTRIBUTE_MEASURED: clearance (mL/min/kg)
Answer with a number only, understood to be in mL/min/kg.

-- ask So what does the record say about clearance for COc1ccc(-c2cncnc2)cc1C(C)(C)C[C@@](O)(Cc1cc2ccncc2[nH]1)C(F)(F)F ?
-- reply 83

====

Recorded measurements of log10 of IC50, one per entry
Target: Glucocorticoid receptor (Homo sapiens, UniProt P04150)
Sequence (P04150 whole entry): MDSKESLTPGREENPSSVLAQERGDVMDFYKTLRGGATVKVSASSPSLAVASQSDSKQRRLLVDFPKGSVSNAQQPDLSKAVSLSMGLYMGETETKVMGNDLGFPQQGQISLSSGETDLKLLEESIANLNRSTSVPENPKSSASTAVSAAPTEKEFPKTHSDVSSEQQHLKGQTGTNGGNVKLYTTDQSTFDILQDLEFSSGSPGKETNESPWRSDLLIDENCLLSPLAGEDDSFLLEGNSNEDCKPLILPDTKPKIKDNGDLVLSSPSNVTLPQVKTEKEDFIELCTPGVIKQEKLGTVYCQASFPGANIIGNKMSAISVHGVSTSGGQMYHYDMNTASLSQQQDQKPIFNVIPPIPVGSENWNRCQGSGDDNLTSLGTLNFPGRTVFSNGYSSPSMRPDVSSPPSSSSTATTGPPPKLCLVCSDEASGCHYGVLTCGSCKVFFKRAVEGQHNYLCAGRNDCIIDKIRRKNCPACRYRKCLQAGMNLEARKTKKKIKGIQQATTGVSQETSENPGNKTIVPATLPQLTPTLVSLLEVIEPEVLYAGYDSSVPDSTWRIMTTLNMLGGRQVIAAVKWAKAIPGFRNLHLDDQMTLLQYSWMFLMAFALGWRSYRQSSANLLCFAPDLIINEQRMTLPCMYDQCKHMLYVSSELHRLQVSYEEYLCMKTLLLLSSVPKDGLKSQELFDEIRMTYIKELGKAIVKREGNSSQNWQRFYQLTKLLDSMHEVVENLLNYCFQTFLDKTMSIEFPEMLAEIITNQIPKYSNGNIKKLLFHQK
Experiment: Binding affinity to glucocorticoid receptor expressed in baculovirus-infected insect cells using tetramethylrhodamine labeled Dexamethasone by fluorescence polarization microplate assay
A difference of one corresponds to tenfold IC50; all values are log10 with IC50 in nM.

Reference set, count: 5
[[record]]
compound = "COc1ccc(F)cc1C(C)(C)CC(O)(Cc1cc2cnccc2[nH]1)C(F)(F)F (centres undefined)"
target_desc = "Glucocorticoid receptor (Homo sapiens, UniProt P04150)"
observed_result = 0.86

[[record]]
compound = "COc1ccc(F)cc1C(C)(C)CC(O)(Cc1cc2cccnc2[nH]1)C(F)(F)F (centres undefined)"
target_desc = "Glucocorticoid receptor (Homo sapiens, UniProt P04150)"
observed_result = 1.32

[[record]]
compound = "COc1ccc(F)cc1C(C)(C)CC(O)(Cc1cc2ccccn2n1)C(F)(F)F (centres undefined)"
target_desc = "Glucocorticoid receptor (Homo sapiens, UniProt P04150)"
observed_result = 2.84

[[record]]
compound = "CC(C)(C[C@@](O)(Cc1cc2cnccc2[nH]1)C(F)(F)F)c1cc(F)ccc1O"
target_desc = "Glucocorticoid receptor (Homo sapiens, UniProt P04150)"
observed_result = 0.67

[[record]]
compound = "COc1ccc(F)cc1C(C)(C)CC(O)(Cc1cc2ccccc2[nH]1)C(F)(F)F (centres undefined)"
target_desc = "Glucocorticoid receptor (Homo sapiens, UniProt P04150)"
observed_result = 1.32


-- ask For COc1ccc(F)cc1C(C)(C)C[C@](O)(Cc1cc2ccncc2[nH]1)C(F)(F)F , what is its reported log10 of IC50?
-- reply 3.23

-- ask Query: log10 of IC50; subject: COc1ccc(-c2cccnc2)cc1C(C)(C)CC(O)(Cc1cc2ccncc2[nH]1)C(F)(F)F (centres undefined)
-- reply 0.90

-- ask Which log10 of IC50 value is on record for COc1ccc(F)cc1C(C)(C)CC(O)(Cc1cc2ccncc2s1)C(F)(F)F (centres undefined) ?
-- reply 0.85

-- ask For CC(C)(C[C@@](O)(Cc1cc2ccncc2[nH]1)C(F)(F)F)c1cc(F)ccc1O , what is its reported log10 of IC50?
-- reply 0.32

Recorded values, source ChEMBL document CHEMBL1250518.
